Target: Pdr3 (UniProt P33200)
Sequence: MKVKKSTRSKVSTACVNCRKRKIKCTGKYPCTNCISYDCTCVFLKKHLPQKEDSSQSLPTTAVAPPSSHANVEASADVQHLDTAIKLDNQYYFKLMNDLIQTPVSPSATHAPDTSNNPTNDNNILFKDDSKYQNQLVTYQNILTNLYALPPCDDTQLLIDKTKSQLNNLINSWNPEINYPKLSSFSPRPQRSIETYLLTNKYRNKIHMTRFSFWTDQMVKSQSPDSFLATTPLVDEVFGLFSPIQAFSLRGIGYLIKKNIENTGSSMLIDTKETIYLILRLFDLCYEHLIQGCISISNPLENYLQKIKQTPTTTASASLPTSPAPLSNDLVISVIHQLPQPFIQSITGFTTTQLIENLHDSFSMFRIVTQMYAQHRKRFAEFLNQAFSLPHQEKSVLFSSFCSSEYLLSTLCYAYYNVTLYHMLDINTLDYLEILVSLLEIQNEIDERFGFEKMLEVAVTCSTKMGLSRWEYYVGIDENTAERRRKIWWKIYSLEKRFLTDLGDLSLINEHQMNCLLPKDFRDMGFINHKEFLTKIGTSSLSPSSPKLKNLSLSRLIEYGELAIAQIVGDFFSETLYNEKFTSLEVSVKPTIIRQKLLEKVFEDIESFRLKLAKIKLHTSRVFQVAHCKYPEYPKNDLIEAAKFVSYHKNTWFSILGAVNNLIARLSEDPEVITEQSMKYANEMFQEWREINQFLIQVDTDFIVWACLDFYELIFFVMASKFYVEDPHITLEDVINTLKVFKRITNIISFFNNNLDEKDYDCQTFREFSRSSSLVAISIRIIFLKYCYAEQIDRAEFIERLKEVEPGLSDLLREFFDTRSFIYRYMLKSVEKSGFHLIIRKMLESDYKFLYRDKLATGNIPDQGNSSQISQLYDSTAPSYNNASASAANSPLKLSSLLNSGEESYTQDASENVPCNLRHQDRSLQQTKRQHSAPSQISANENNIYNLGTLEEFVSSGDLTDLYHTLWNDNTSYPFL
Test: PBM E-score (8-mer binding enrichment) (E-score (-0.5 to 0.5)); higher = stronger / more preferred TF binding
Settings: protein concentration: 200 nM; construct: GST-full length
Over roughly 33,000 sequences, “E-score (-0.5 to 0.5)” has its median near -0.035; the highest 2% begin near 0.35. The list comes from a sample in which the highest values are over-represented; it also holds close analogues and randomly drawn sequences.
The entries below come with measured PBM E-score values attached.

| sequence content | PBM E-score |
| --- | --- |
| GTGGCCGA | 0.107 |
| CGTGCAGA | -0.148 |
| CGGGCGTA | 0.0837 |
| CCCGCGAA | 0.206 |
| GGGGCGGA | 0.359 |
| ACTCTATG | 0.0265 |
| GGGGCGTA | -0.114 |
| AGTTTGAT | 0.0669 |
